Taken from patent US20160376333A1.

- experimental_target: T1, Epstein-Barr virus BHRF1 a.a. 1-161 with C-terminal avi-6his tag (Epstein-Barr virus)
- T1 construct: also called EBV BHRF1; BHRF1-biotin
- T1 chain: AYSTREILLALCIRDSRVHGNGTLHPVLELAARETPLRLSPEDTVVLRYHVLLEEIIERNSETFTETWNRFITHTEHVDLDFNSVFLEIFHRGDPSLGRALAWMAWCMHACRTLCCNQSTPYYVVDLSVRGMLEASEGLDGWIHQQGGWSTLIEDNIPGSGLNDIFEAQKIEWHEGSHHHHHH
- test_details: yeast display library, FACS sort at 100 nM BHRF1, deep sequencing
Mark each entry criterion met if its Log2 enrichment ratio sits below -3 log2, and criterion not met for all others.

These recorded examples may help you get a feel for the data.
[
  {
    "binder": "Index 10 (designed binder) GDSDDDDLKDALLRMLWAAAQAIYHSLENMERKEKFDMHFEEERRDTLQWIADALRAIGDAFNEMMRRRRELEKKRENNIISEQRARLYEEFLKRFAEWASRELAKAGKKEANKLNEG",
    "category": "criterion not met"
  },
  {
    "binder": "Index 63 (designed binder) GDDKEKVKDYAKKRALEDVLRAKELAEKFIDEAKKSDHSKQNERQYIIAWIAFMLMAIGDVFNAMMEAKRLAELLKRLGLRRWEEAEEVKQKAEELAEEASRLLADLGKDFAKKIEQG",
    "category": "criterion not met"
  },
  {
    "binder": "Index 28 (designed binder) GKEGSRLREEAERRGLRKLLEVILRWLEDALRMIYGQDKDEDRKEATHRWIADALELIGDIFNALLEAFIKMELARRFGLLEEQRARDEKKKALERAEEFSKRARELGEKLTQILEGG",
    "category": "criterion met"
  },
  {
    "binder": "Index 05 (designed binder) GKDADKKKDEAKKKAEWKEREVFERLEKMEWKKRKDSVSKDDARKFTLKWIADDLELIGDLFNLKEEAREVAEDAARNNQITEEQREEDEKDLEKLAKEHSWRAAYRGKLKAKEFWEG",
    "category": "criterion not met"
  },
  {
    "binder": "Index 07 (designed binder) GEEFKKKLKKWEEWLLKATNEAENQARNMWQKAEQTDLEDQQRIRAVDFWIAIALMAIGDKFNADQEGDEEFEKYKKKGRASEDKIKEAKDERDRAKKRWEQFVKEAGERAFRGEQLG",
    "category": "criterion not met"
  }
]

Here is another binder to look at.
Ask: Is the reported Log2 enrichment ratio for Index 11 (designed binder) GNILDEAKDEMREEMEKLWKKFKDEVEEERKEAEREEKHFQERAELTKRWIARALMAIGDMFNRFREAKEKLEKRRELGLISEEDARKALLLLEEFMRRMAEFAKKLGDDLMRDAEKG strictly below -3 log2?
Reply: criterion not met
